Molecular target: T1, TNFR1 (Homo sapiens, UniProt P19438)
T1 chain: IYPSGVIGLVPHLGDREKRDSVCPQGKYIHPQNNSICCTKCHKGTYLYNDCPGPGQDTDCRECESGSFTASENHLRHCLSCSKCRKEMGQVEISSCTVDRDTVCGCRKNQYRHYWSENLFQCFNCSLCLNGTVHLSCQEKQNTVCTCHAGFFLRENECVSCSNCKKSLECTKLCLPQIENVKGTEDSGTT
Test: yeast display SC50
metric-name: apparent Kd (screen) (nM)
One number for each entry, in nM.

# annotated cases, reported apparent Kd (screen) shown
[
  {
    "binder": "A105R (designed binder) SMEEEVEKAAKEYEKKKKEAIEKHLEKLKAKDKEAAERFLKELEEAAKEYAKDEAKTMSEEEAKRRAKKYKEKVLLSELSEEEQKEIKEAEEKLVRTILKYVEERAK",
    "unit-name": "nM",
    "apparent Kd (screen)": 2.73
  },
  {
    "binder": "E45N (designed binder) SMEEEVEKAAKEYEKKKKEAIEKHLEKLKAKDKEAAERFLKELENAAKEYAKDEAKTMSEEEAKRRAKKYKEKVLLSELSEEEQKEIKEAEEKLVRTILKYVEEAAK",
    "unit-name": "nM",
    "apparent Kd (screen)": 2.48
  },
  {
    "binder": "K23S (designed binder) SMEEEVEKAAKEYEKKKKEAIESHLEKLKAKDKEAAERFLKELEEAAKEYAKDEAKTMSEEEAKRRAKKYKEKVLLSELSEEEQKEIKEAEEKLVRTILKYVEEAAK",
    "unit-name": "nM",
    "apparent Kd (screen)": 0.49
  },
  {
    "binder": "K18N (designed binder) SMEEEVEKAAKEYEKKKNEAIEKHLEKLKAKDKEAAERFLKELEEAAKEYAKDEAKTMSEEEAKRRAKKYKEKVLLSELSEEEQKEIKEAEEKLVRTILKYVEEAAK",
    "unit-name": "nM",
    "apparent Kd (screen)": 0.539
  },
  {
    "binder": "L28W (designed binder) SMEEEVEKAAKEYEKKKKEAIEKHLEKWKAKDKEAAERFLKELEEAAKEYAKDEAKTMSEEEAKRRAKKYKEKVLLSELSEEEQKEIKEAEEKLVRTILKYVEEAAK",
    "unit-name": "nM",
    "apparent Kd (screen)": 0.49
  },
  {
    "binder": "E103N (designed binder) SMEEEVEKAAKEYEKKKKEAIEKHLEKLKAKDKEAAERFLKELEEAAKEYAKDEAKTMSEEEAKRRAKKYKEKVLLSELSEEEQKEIKEAEEKLVRTILKYVNEAAK",
    "unit-name": "nM",
    "apparent Kd (screen)": 0.49
  }
]

With those in mind, consider the next binder.
(Q) # lookup: apparent Kd (screen) of M58P (designed binder) SMEEEVEKAAKEYEKKKKEAIEKHLEKLKAKDKEAAERFLKELEEAAKEYAKDEAKTPSEEEAKRRAKKYKEKVLLSELSEEEQKEIKEAEEKLVRTILKYVEEAAK
(A) 0.653

Origin of the recorded values: paper PMC12416549
